All figures here come from the supplement of paper PMC10724198.

System: Saccharomyces cerevisiae;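 further: PSI is a weighted mean of sequencing reads over stability bins, variants kept only with over 10 reads, mCherry proximal and sfGFP distal, peptide attached via GGGS linker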
Assay Method Text: protein stability index of tFT-peptide fusion (C-terminal peptide) (PSI (0-1 scale)); higher = more stable (slower turnover)
Settings: genetic background: wild type; temperature: 30 C
Parameter Measured: protein stability index
Give the figure by itself; no unit, no explanation.

Use these answered entries as a reference point.
TRLDLIDSLRHL; 0.731
PPPLLPASFHLP; 0.629
PPPLFLSPFPPR; 0.727
WCGSWGVWMRLG; 0.122
PDPPPLLPRLSL; 0.701
LSVTGGRFSVSG; 0.717

For EQQTPIKKNKQR , what is its reported protein stability index?
0.826

Input HRASFRIGFRTF
0.758

And HISSFPSPPPPV ?
0.711

What about this sequence? PPPLSLSCPFRP
0.712
